Biological target: HLA-B*44:02
Assay: IEDB peptide-MHC binding, purified MHC/competitive/radioactivity; filed as Kd, often an IC50 or EC50 that approximates it; bounds were set here for any values at or beyond the usual limits of such assays
Details: source organism: Lymphocytic choriomeningitis virus (strain Armstrong)
RECORDED_METRIC: pKd
On this scale, pKd is minus log10 of a concentration expressed in M (mol/L).

Noted for REFVATTRTL : its pKd reads 5.50

====

Target: HLA-B*40:01
Assay: IEDB peptide-MHC binding, purified MHC/direct/fluorescence; filed as Kd, often an IC50 or EC50 that approximates it; bounds were set here for any values at or beyond the usual limits of such assays
Conditions: source organism: Brucella abortus
RECORDED_METRIC: Kd

Noted for RFRCVGPAP : its Kd reads ≥ 20 µM

====

Target: HLA-A*24:02
Experiment: IEDB peptide-MHC binding, purified MHC/competitive/fluorescence; filed as Kd, often an IC50 or EC50 that approximates it; bounds were set here for any values at or beyond the usual limits of such assays
Settings: source organism: Influenza A virus (A/turkey/Ohio/313053/2004(H3N2))
RECORDED_METRIC: Kd (nM)
Enter your answer as a number in nM; do not include the unit.

Lab entry: HLA-A*24:02 assay, sequence RYSGFVRTL , Kd = 1.1

====

Target: HLA-A*31:01
Assay: IEDB peptide-MHC binding, purified MHC/direct/fluorescence; filed as Kd, often an IC50 or EC50 that approximates it; bounds were set here for any values at or beyond the usual limits of such assays
Details: source organism: Camelpox virus CMS
RECORDED_METRIC: Kd

Noted for VIARTHTAL : its Kd reads ≥ 20 µM

====

Biological target: HLA-B*58:01
Experiment: IEDB peptide-MHC binding, purified MHC/direct/fluorescence; filed as Kd, often an IC50 or EC50 that approximates it; bounds were set here for any values at or beyond the usual limits of such assays
Settings: source organism: Rickettsia sibirica
pKd: −log10 of the molar value.
RECORDED_METRIC: pKd

Noted for ASDRISGIL : its pKd reads ≤ 4.70

====

Target: HLA-A*02:12
Assay: IEDB peptide-MHC binding, purified MHC/direct/fluorescence; filed as Kd, often an IC50 or EC50 that approximates it; bounds were set here for any values at or beyond the usual limits of such assays
Conditions: source organism: Vibrio vulnificus YJ016
RECORDED_METRIC: Kd

Noted for MKYVWPPIM : its Kd reads ≥ 20 µM

====

Molecular target: HLA-A*29:02
Experiment: IEDB peptide-MHC binding, purified MHC/competitive/radioactivity; filed as Kd, often an IC50 or EC50 that approximates it; bounds were set here for any values at or beyond the usual limits of such assays
Conditions: source organism: Mammarenavirus guanaritoense
RECORDED_METRIC: pKd
On this scale, pKd is minus log10 of a concentration expressed in M (mol/L).

Reference set (3 entries):
SEQUENCE_RECORD | pKd
ILLNNPNLF | 7.33
EDAQPGLLSY | 5.09
PTMEIEDQEY | 4.95

Next sequence, pKd to be filled in.
Noted for SSSPTILDNY : its pKd reads 7.00

====

Molecular target: HLA-C*04:01
Assay: IEDB peptide-MHC binding, purified MHC/competitive/fluorescence; filed as Kd, often an IC50 or EC50 that approximates it; bounds were set here for any values at or beyond the usual limits of such assays
Conditions: source organism: Yellow fever virus 1899/81
RECORDED_METRIC: Kd

Noted for REMHHLVEF : its Kd reads ≥ 5 µM
